System: Metabotropic glutamate receptor 5 (Rattus norvegicus, UniProt P31424)
Sequence (P31424 whole entry): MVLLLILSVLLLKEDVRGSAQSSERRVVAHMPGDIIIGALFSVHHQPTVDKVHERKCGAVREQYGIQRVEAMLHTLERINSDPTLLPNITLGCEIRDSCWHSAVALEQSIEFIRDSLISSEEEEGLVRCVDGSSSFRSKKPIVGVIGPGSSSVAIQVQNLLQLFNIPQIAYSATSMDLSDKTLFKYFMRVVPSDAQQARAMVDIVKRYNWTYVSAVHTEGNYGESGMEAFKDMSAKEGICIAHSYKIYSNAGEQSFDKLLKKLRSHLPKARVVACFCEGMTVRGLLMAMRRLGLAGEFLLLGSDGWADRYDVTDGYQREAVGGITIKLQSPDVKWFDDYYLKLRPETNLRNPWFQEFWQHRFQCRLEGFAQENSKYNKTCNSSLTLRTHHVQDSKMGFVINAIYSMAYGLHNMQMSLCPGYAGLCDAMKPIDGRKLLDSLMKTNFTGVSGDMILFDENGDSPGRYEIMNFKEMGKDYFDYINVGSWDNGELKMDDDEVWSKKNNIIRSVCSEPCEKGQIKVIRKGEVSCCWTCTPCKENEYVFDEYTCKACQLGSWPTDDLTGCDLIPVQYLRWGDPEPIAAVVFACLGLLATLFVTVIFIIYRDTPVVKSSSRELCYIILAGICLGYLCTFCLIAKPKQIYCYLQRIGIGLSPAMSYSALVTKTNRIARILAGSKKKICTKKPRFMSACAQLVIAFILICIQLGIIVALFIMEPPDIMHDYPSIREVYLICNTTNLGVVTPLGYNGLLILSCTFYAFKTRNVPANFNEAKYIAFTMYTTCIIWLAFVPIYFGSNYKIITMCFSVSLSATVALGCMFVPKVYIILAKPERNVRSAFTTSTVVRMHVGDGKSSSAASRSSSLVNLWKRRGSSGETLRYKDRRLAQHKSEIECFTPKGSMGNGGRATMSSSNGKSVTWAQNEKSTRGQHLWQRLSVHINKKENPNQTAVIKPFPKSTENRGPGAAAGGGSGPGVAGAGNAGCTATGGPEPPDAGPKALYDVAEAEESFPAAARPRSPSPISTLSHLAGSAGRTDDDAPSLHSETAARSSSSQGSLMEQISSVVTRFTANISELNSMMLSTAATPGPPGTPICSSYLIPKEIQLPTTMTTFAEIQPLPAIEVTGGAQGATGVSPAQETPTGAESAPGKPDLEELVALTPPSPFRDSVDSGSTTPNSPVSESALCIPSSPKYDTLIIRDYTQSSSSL
Experiment: Negative allosteric modulation of mGlu5 receptor in primary E17 rat embryo neuron assessed as ca2+ level by fluo-4/AM assay
pIC50: −log10 of the molar value.
Metric: pIC50

# count of solved cases: 3
Look up pIC50 for this compound: N#Cc1cc(F)cc(S(=O)(=O)c2sc3ncc(N)cc3c2-c2cnccc2Cl)c1
7.47

Look up pIC50 for this compound: Nc1cnc2sc(S(=O)(=O)c3ccc(Cl)cc3)c(-c3cccc(F)c3)c2c1
6.90

Look up pIC50 for this compound: N#Cc1cc(F)cc(S(=O)(=O)c2sc3ncccc3c2-c2ccc(F)cc2)c1
7.97

a = N#Cc1cccc(S(=O)(=O)c2sc3ncccc3c2-c2ccc(Cl)cc2)c1
b = N#Cc1cc(F)cc(S(=O)(=O)c2sc3ncccc3c2-c2cccc(F)c2)c1
c = N#Cc1cc(F)cc(S(=O)(=O)c2sc3ncccc3c2-c2cccc(Cl)c2)c1
Order by pIC50, ascending. Order the labels as requested and list them.
a, c, b

====

System: UniProtKB P31424
Metric: Ki (nM)

# count of solved cases: 3
Missing value: Ki, UniProtKB P31424, entry N#Cc1cccc(S(=O)(=O)c2sc3ncccc3c2-c2ccccc2Cl)c1 . Fill in?
3.5

Missing value: Ki, UniProtKB P31424, entry N#Cc1cc(F)cc(S(=O)(=O)c2sc3ncc(N)cc3c2-c2cnccc2F)c1 . Fill in?
15.2

Missing value: Ki, UniProtKB P31424, entry O=S(=O)(c1ccc(F)cc1)c1sc2ncccc2c1-c1ccc(Cl)cc1 . Fill in?
15.6

a = CS(=O)(=O)Nc1cnc2sc(S(=O)(=O)c3ccc(Cl)cc3)c(-c3ccc(Cl)cc3)c2c1
b = N#Cc1cc(F)cc(S(=O)(=O)c2sc3ncccc3c2-c2cccc(Cl)c2)c1
c = O=S(=O)(c1ccc(Cl)cc1)c1sc2ncccc2c1-c1ccc(Cl)c(Cl)c1
d = N#Cc1cccc(S(=O)(=O)c2sc3ncc(N)cc3c2-c2cccc(F)c2)c1
Rank descending by Ki. Order the labels as requested and list them.
a, c, b, d

a = Cc1cccc(S(=O)(=O)c2sc3ncccc3c2-c2ccc(Cl)cc2)c1
b = Nc1ccnc2sc(S(=O)(=O)c3ccc(Cl)cc3)c(-c3ccc(Cl)cc3)c12
c = O=S(=O)(c1ccc(Cl)cc1Cl)c1sc2ncccc2c1-c1ccc(Cl)cc1
d = N#Cc1cccc(S(=O)(=O)c2sc3ncccc3c2-c2cccc(F)c2)c1
Rank descending by Ki. Order the labels as requested and list them.
c, b, a, d

1 = N#Cc1cc(F)cc(S(=O)(=O)c2sc3ncccc3c2-c2ccc(Cl)cc2)c1
2 = Nc1ccc2c(-c3ccc(Cl)cc3)c(S(=O)(=O)c3ccc(Cl)cc3)sc2n1
Could you please tell me which of these two has the higher Ki: 1 or 2 ? Return value: the label identifying the chosen record.
2

====

System: Liver microsome
Experiment: Intrinsic clearance in Wistar rat liver microsomes measured per gram of tissue at 2.5 uM
Type: ADME
Metric: CLH (mL/min/g)

Look up CLH for this compound: COc1ccc2c(-c3ccc(Cl)cc3)c(S(=O)(=O)c3ccc(Cl)cc3)sc2n1
2.6

I = N#Cc1cccc(S(=O)(=O)c2sc3nc(Cl)ccc3c2-c2ccc(Cl)cc2)c1
II = N#Cc1cccc(S(=O)(=O)c2sc3nc(O)ccc3c2-c2ccc(Cl)cc2)c1
Hey, which is lower on measured CLH, I or II ? Return value: the label identifying the chosen record.
II
(II: 1.1 mL/min/g, I: 3.6 mL/min/g)

I = Nc1cnc2sc(S(=O)(=O)c3ccc(Cl)cc3)c(-c3ccccc3F)c2c1
II = N#Cc1cccc(S(=O)(=O)c2sc3ncc(N)cc3c2-c2cccc(Cl)c2)c1
III = N#Cc1cccc(S(=O)(=O)c2sc3nc(F)ccc3c2-c2ccc(Cl)cc2)c1
IV = COc1ccc(-c2c(S(=O)(=O)c3cccc(C#N)c3)sc3ncccc23)cc1
V = N#Cc1cc(F)cc(S(=O)(=O)c2sc3ncc(N)cc3c2-c2ccncc2F)c1
Rank descending by CLH. Order the labels as requested and list them.
IV, I, III, V, II
